- System: oral lavage
- protocol description: Formation of formazan dyes: oral lavage and diaphorase, not malate (TABLE 11)
- Format: biochemical, human
- particulars: oral lavage and diaphorase, not malate; 2 h
readout: Formation of formazan dyes, absorbance, Means 2 h

The examples below pair each entry with its known result.
COc1cc([N+](=O)[O-])c(S(=O)(=O)[O-])cc1-n1nc(C(=O)Nc2ccccc2)n[n+]1-c1cc(S(=O)(=O)O)c([N+](=O)[O-])cc1OC [XTT]
1.04
O=[N+]([O-])c1ccc(-[n+]2nc(-c3ccc(S(=O)(=O)[O-])cc3S(=O)(=O)[O-])nn2-c2ccc(I)cc2)cc1.[Na+] [WST-1]
1.28
COc1cc([N+](=O)[O-])ccc1-[n+]1nc(-c2ccc(S(=O)(=O)[O-])cc2S(=O)(=O)[O-])nn1-c1ccc([N+](=O)[O-])cc1.[Na+] [WST-8]
0.87
Cc1nc(-[n+]2nc(-c3cccc(OCC(=O)O)c3)nn2-c2ccc(S(=O)(=O)[O-])cc2)sc1C [MTS]
0.91

Checklist item: Formation of formazan dyes, absorbance, Means 2 h tested on oral lavage, entry COc1cc(-c2ccc(-[n+]3nc(-c4ccc(C(=O)N(CCS(=O)(=O)[O-])CCS(=O)(=O)[O-])cc4)nn3-c3nc4ccccc4s3)c(OC)c2)ccc1-[n+]1nc(-c2ccc(C(=O)N(CCS(=O)(=O)[O-])CCS(=O)(=O)[O-])cc2)nn1-c1nc2ccccc2s1.[Na+].[Na+] [WST-5] , value? 0.77

Data origin: patent US20180320217A1
